- test details: Cytotoxicity against HK-2 cells incubated for 48 hrs by CCK8 assay
- Type: toxicity, cell-based
- condition info: human
IC50 at 48 h values, listed per item

Example results:
INSERT INTO assay_data (compound, value_observed) VALUES
  ('CCCSc1nc2c(c(=O)[nH]1)C(c1ccc(OC)cc1[N+](=O)[O-])CC(=O)N2 (racemic)', '> 100 µg/mL'),
  ('CCCSc1nc2c(c(=O)[nH]1)[C@@H](c1ccc(OC)cc1[N+](=O)[O-])CC(=O)N2', '41.1 µg/mL'),
  ('CCCSc1nc2c(c(=O)[nH]1)C(c1ccc(OC)cc1)CC(=O)N2 (racemic)', '24.8 µg/mL'),
  ('CCCSc1nc2c(c(=O)[nH]1)[C@H](c1ccc(OC)cc1[N+](=O)[O-])CC(=O)N2', '56.2 µg/mL'),
  ('CCCSc1nc2c(c(=O)[nH]1)[C@H](c1ccc(OC)cc1)CC(=O)N2', '73.1 µg/mL');

Now consider the entry below.
Identify measured IC50 at 48 h associated with `CCCSc1nc2c(c(=O)[nH]1)[C@@H](c1ccc(OC)cc1)CC(=O)N2`
32.5 µg/mL

====

- test details: Selectivity index, ratio of IC50 for african green monkey Vero cells to IC50 for Mycobacterium tuberculosis H37Rv
- Type: toxicity
- condition info: read-out: Ratio IC50
Listed here: items and their measured selectivity ratio.
Please give only the number in your answer, with no unit.

INSERT INTO measurements (compound, value_observed) VALUES
  ('CCCSc1nc2c(c(=O)[nH]1)C(c1ccc(OC)c([N+](=O)[O-])c1)CC(=O)N2 (centres undefined)', 14),
  ('CCCSc1nc2c(c(=O)[nH]1)C(c1ccc(OC)cc1)CC(=O)N2 (racemic)', 93),
  ('CCCOc1ccc(C2CC(=O)Nc3nc(SCCC)[nH]c(=O)c32)c(O)c1 (centres undefined)', 35.6);

Read off the recorded selectivity ratio for CCCSc1nc2c(c(=O)[nH]1)C(c1ccc(OCC)cc1)CC(=O)N2 (centres undefined)
174

====

Entries and their MRT inf
- test details: Observed mean residence time infinity in BALB/c mouse at 30 mg/kg, po measured upto 24 hrs by LC-MS/MS analysis
- Format: ADME, organism-based
- condition info: in vivo

INSERT INTO assay_data (smiles_text, value_observed) VALUES
  ('CCCSc1nc2c(c(=O)[nH]1)[C@@H](c1ccc(OC)cc1[N+](=O)[O-])CC(=O)N2', '10.1 h');

For `CCCSc1nc2c(c(=O)[nH]1)[C@@H](c1ccc(OC)cc1)CC(=O)N2` , write its MRT inf.
6.85 h

====

Recorded Tmax values for a group of compounds are listed next.
- test details: Tmax in BALB/c mouse at 30 mg/kg, po measured upto 24 hrs by LC-MS/MS analysis
- Assay type: ADME, organism-based
- condition info: in vivo
The reply should contain only the number, in min.

INSERT INTO measurements (smiles_text, value_type, unit_info, value_observed) VALUES
  ('CCCSc1nc2c(c(=O)[nH]1)[C@@H](c1ccc(OC)cc1[N+](=O)[O-])CC(=O)N2', 'Tmax', 'min', 25);

Let us examine a further case.
Tell me its Tmax given `CCCSc1nc2c(c(=O)[nH]1)[C@@H](c1ccc(OC)cc1)CC(=O)N2` as the entry.
30
